Tested on: MOLT-4
Test: NCI60 one-dose screen (10 μM), Leukemia
Assay type: cell-based, human
Details: Homo sapiens, MOLT-4, read-out: Growth percent rate
Classification field: enter Criterion met for activity at 10 µM values not below 80%, Criterion not met for values below it.

[
  {
    "compound": "CCC12C=CCN3CC[C@@]4(c5ccc(OC)cc5N(C)[C@H]4[C@@](O)(C(=O)OC)[C@@H]1OC(C)=O)[C@@H]32 (stereo partly drawn) [Compound 1, vindoline]",
    "target system": "MOLT-4",
    "label class": "Criterion met"
  },
  {
    "compound": "CCC12C=CCN3CCC4(c5ccc(OC)cc5N(C)C4C(O)(C(=O)OC)C1O)C32 (stereo not drawn) [Compound 13, 17-desacetylvindoline]",
    "target system": "MOLT-4",
    "label class": "Criterion met"
  },
  {
    "compound": "CC[C@]12C=CCN3CC[C@@]4(c5ccc(OC)cc5N(C)[C@H]4[C@@](O)(C(=O)OC)[C@@H]1OC(=O)CCC(=O)N1CCN(C(=O)c4ccco4)CC1)[C@@H]32 [Compound 32]",
    "target system": "MOLT-4",
    "label class": "Criterion met"
  },
  {
    "compound": "CC[C@]12C=CCN3CC[C@@]4(c5ccc(OC)cc5N(C)[C@H]4[C@@](O)(C(=O)OC)[C@@H]1OC(=O)CCCN1CCN(C(c4ccc(F)cc4)c4ccc(F)cc4)CC1)[C@@H]32 [Compound 25]",
    "target system": "MOLT-4",
    "label class": "Criterion not met"
  },
  {
    "compound": "CCC12C=CCN3CCC4(c5cc(NC(=O)CN6CCN(Cc7ccc(C(F)(F)F)cc7)CC6)c(OC)cc5N(C)C4C(O)(C(=O)OC)C1OC(C)=O)C32 (stereo not drawn) [Compound 18]",
    "target system": "MOLT-4",
    "label class": "Criterion not met"
  }
]
